Target: HIV-1 JR-CSF Env N241A (HIV-1 JR-CSF) (UniProt P20871)
Experiment: cell-based or functional assay
Readout type: Fold IC50 increase relative to wild-type (fold)
Give the value in fold but do not write fold after it.

Lookup: // lookup Fold IC50 increase relative to wild-type for PGT-123 (antibody, V domains shown) VH: QLHLQESGPGLVKPPETLSLTCSVSGASINDAYWSWIRQSPGKRPEWVGYVHHSGDTNYNPSLKRRVTFSLDTAKNEVSLKLVDLTAADSATYFCARALHGKRIYGIVALGELFTYFYMDVWGKGTAVTVSS VL: SSMSVSPGETAKISCGKESIGSRAVQWYQQKPGQPPSLIIYNNQDRPAGVPERFSASPDFRPGTTATLTITNVDAEDEADYYCHIYDARGGTNWVFDRGTTLTVL
Found: 0.8

Lookup: // lookup Fold IC50 increase relative to wild-type for PGT-126 (antibody, V domains shown) VH: QPQLQESGPGLVEASETLSLTCTVSGDSTAACDYFWGWVRQPPGKGLEWIGGLSHCAGYYNTGWTYHNPSLKSRLTISLDTPKNQVFLKLNSVTAADTAIYYCARFDGEVLVYHDWPKPAWVDLWGRGTLVTVSS VL: QSALTQPPSASGSPGQSISISCTGTSNRFVSWYQQHPGKAPKLVIYGVNKRPSGVPDRFSGSKSGNTASLTVSGLQTDDEAVYYCSSLVGNWDVIFGGGTKLTVL
Found: 0.6

Lookup: // lookup Fold IC50 increase relative to wild-type for PGT-135 (antibody, V domains shown) VH: QLQMQESGPGLVKPSETLSLSCTVSGDSIRGGEWGDKDYHWGWVRHSAGKGLEWIGSIHWRGTTHYKESLRRRVSMSIDTSRNWFSLRLASVTAADTAVYFCARHRHHDVFMLVPIAGWFDVWGPGVQVTVSS VL: EIVMTQSPDTLSVSPGETVTLSCRASQNINKNLAWYQYKPGQSPRLVIFETYSKIAAFPARFVASGSGTEFTLTINNMQSEDVAVYYCQQYEEWPRTFGQGTKVDIK
Found: 0.1
